Values compiled from ChEMBL document CHEMBL3421563.

# experimental-protocol: Antagonist activity at Pseudomonas aeruginosa LasR expressed in Escherichia coli BL21 DE3 after 4 to 6 hrs by GFP reporter gene assay
Each entry below lists one item and its recorded IC50 value.
Hi! Could you send only the number? It should be in µM, unit omitted.

Data point: O=C(Cc1cc(Br)cc(Br)c1OC(=O)CCN1C(=O)C=CC1=O)Nc1ccccc1[N+](=O)[O-] ; IC50 = 3.6

// IC50 value for O=C(CCN1C(=O)C=CC1=O)Oc1c(Br)cc(Br)cc1CNC(=O)c1ccccc1[N+](=O)[O-] : 51.9

GET /value?item= O=C(Cc1ccc(Br)cc1)N[C@H]1CCOC1=O &field=IC50 returns 16.4

Switching to the query record.
// recorded IC50 for O=C(Cc1cc(Br)cc(Br)c1OC(=O)CCCN1C(=O)C=CC1=O)Nc1ccccc1[N+](=O)[O-] : 78.1

====

# experimental-protocol: Antagonist activity at Pseudomonas aeruginosa LasR expressed in Escherichia coli BL21 DE3 after 4 to 6 hrs by GFP reporter gene assay
parameter-measured: IC50

Reported IC50 for O=C(Cc1cc(Br)cc(Br)c1OC(=O)CCN1C(=O)CCC1=O)Nc1ccccc1[N+](=O)[O-] was > 100 µM

Quick note, IC50 for O=C(CCCN1C(=O)CCC1=O)Oc1c(Br)cc(Br)cc1CNC(=O)c1ccccc1[N+](=O)[O-] landed at > 100 µM

IC50 for O=C(CCCN=C=S)Oc1c(Br)cc(Br)cc1CNC(=O)c1ccccc1[N+](=O)[O-] is > 200 µM
